Every entry's value here was drawn from ChEMBL document CHEMBL1944590.

test: Metabolic stability of the compound in rat liver microsomes assessed as compound remaining at 0.5 uM aftet 10 mins
Assay type: ADME, Microsome
condition.notes: read-out: Stability
I'd be grateful if you could share measured remaining at 10 min, 0.5 µM for these entries.
Give the number; % is assumed, so skip it.

IN: Name the recorded remaining at 10 min, 0.5 µM of the item CC(C)N[C@@H]1CC[C@H](NC(=O)CNC(=O)c2cccc(C(F)(F)F)c2)C[C@@H]1CS(=O)(=O)c1ccccc1 (racemic) in your answer.
OUT: 0.9

IN: Entry N[C@@H]1CC[C@H](NC(=O)CNC(=O)c2cccc(C(F)(F)F)c2)C[C@@H]1CS(=O)(=O)c1ccccc1 (racemic) needs its remaining at 10 min, 0.5 µM filled in; supply it.
OUT: 57

IN: // fetch remaining at 10 min, 0.5 µM given entry CCN[C@@H]1CC[C@H](NC(=O)CNC(=O)c2cccc(C(F)(F)F)c2)C[C@@H]1CS(=O)(=O)c1ccccc1 (racemic)
OUT: 23

IN: Specify reported remaining at 10 min, 0.5 µM for the molecule shown: N[C@@H]1CC[C@H](NC(=O)CNC(=O)c2cc(C(F)(F)F)ccc2NC(=O)N2CCC2)C[C@@H]1CS(=O)(=O)c1ccccc1 (racemic)
OUT: 71

IN: Give the reported remaining at 10 min, 0.5 µM for this molecule. CCCN[C@@H]1CC[C@H](NC(=O)CNC(=O)c2cccc(C(F)(F)F)c2)C[C@@H]1CS(=O)(=O)c1ccccc1 (racemic)
OUT: 8

IN: Read the entry CN(C)[C@@H]1CC[C@H](NC(=O)CNC(=O)c2cccc(C(F)(F)F)c2)C[C@@H]1CS(=O)(=O)c1ccccc1 (racemic) and write its reported remaining at 10 min, 0.5 µM.
OUT: 3.9

----------
test: Metabolic stability of the compound in mouse liver microsomes assessed as compound remaining at 0.5 uM aftet 10 mins
Assay type: ADME, Microsome
condition.notes: read-out: Stability
readout.type: remaining at 10 min, 0.5 µM (%)
Your answer should be a plain number; it is taken to be in %.

IN: Return the recorded remaining at 10 min, 0.5 µM value; entry: CCN[C@@H]1CC[C@H](NC(=O)CNC(=O)c2cccc(C(F)(F)F)c2)C[C@@H]1CS(=O)(=O)c1ccccc1 (racemic)
OUT: 25

IN: Determine from records and report remaining at 10 min, 0.5 µM for CN(C)[C@@H]1CC[C@H](NC(=O)CNC(=O)c2cccc(C(F)(F)F)c2)C[C@@H]1CS(=O)(=O)c1ccccc1 (racemic)
OUT: 4.3

IN: Supply recorded remaining at 10 min, 0.5 µM for CCCN[C@@H]1CC[C@H](NC(=O)CNC(=O)c2cccc(C(F)(F)F)c2)C[C@@H]1CS(=O)(=O)c1ccccc1 (racemic) here.
OUT: 28

IN: Consider the compound N[C@@H]1CC[C@H](NC(=O)CNC(=O)c2cccc(C(F)(F)F)c2)C[C@@H]1CS(=O)(=O)c1ccccc1 (racemic) . State its measured remaining at 10 min, 0.5 µM.
OUT: 96

IN: Give the reported value of remaining at 10 min, 0.5 µM for this record: N[C@@H]1CC[C@H](NC(=O)CNC(=O)c2cc(C(F)(F)F)ccc2NC(=O)N2CCC2)C[C@@H]1CS(=O)(=O)c1ccccc1 (racemic)
OUT: 87

IN: Kindly indicate its recorded remaining at 10 min, 0.5 µM. Item: CC(C)N[C@@H]1CC[C@H](NC(=O)CNC(=O)c2cccc(C(F)(F)F)c2)C[C@@H]1CS(=O)(=O)c1ccccc1 (racemic)
OUT: 9.6

----------
measured.on: UniProt P41597
test: Displacement of [125I]MCP-1 from CCR2 in human THP1 cells
Assay type: cell-based, THP-1
readout.type: pIC50
Scale: negative log10 of molar concentration, which is what pIC50 denotes.

IN: # return recorded pIC50 for entry CC(C)N(C)[C@@H]1CC[C@H](NC(=O)CNC(=O)c2cccc(C(F)(F)F)c2)C[C@@H]1CS(=O)(=O)c1ccccc1 (racemic)
OUT: 7.05

IN: Provide measured pIC50 value, entry: CC(C)N[C@@H]1CC[C@H](NC(=O)CNC(=O)c2cc(C(F)(F)F)ccc2NC(=O)N2CCC2)C[C@@H]1CS(=O)(=O)c1ccccc1 (racemic)
OUT: 8.18

IN: Hello, please tell me recorded pIC50 for this one: CC(C)N(C)[C@@H]1CC[C@H](NC(=O)CNC(=O)c2cc(C(F)(F)F)ccc2NC(=O)N2CCC2)C[C@@H]1CS(=O)(=O)c1ccccc1 (racemic)
OUT: 7.47

IN: Given the molecule CCN[C@@H]1CC[C@H](NC(=O)CNC(=O)c2cc(C(F)(F)F)ccc2NC(=O)N2CCC2)C[C@@H]1CS(=O)(=O)c1ccccc1 (racemic) , write its reported pIC50.
OUT: 7.92

----------
test: Metabolic stability of the compound in human liver microsomes assessed as compound remaining at 0.5 uM aftet 10 mins
Format: ADME, Microsome
condition.notes: read-out: Stability
Define the label as true when remaining at 10 min, 0.5 µM is strictly less than 20% and as false in all remaining cases.

IN: For this compound, is remaining at 10 min, 0.5 µM lower than 20%? N[C@@H]1CC[C@H](NC(=O)CNC(=O)c2cccc(C(F)(F)F)c2)C[C@@H]1CS(=O)(=O)c1ccccc1 (racemic)
OUT: false

IN: # TODO verify remaining at 10 min, 0.5 µM < 20% strictly for this compound: CN(C)[C@@H]1CC[C@H](NC(=O)CNC(=O)c2cccc(C(F)(F)F)c2)C[C@@H]1CS(=O)(=O)c1ccccc1 (racemic)
OUT: true

IN: A record lists N[C@@H]1CC[C@H](NC(=O)CNC(=O)c2cc(C(F)(F)F)ccc2NC(=O)N2CCC2)C[C@@H]1CS(=O)(=O)c1ccccc1 (racemic) . Is its remaining at 10 min, 0.5 µM below 20%?
OUT: false

IN: Check if remaining at 10 min, 0.5 µM falls below 20% for CC(C)N[C@@H]1CC[C@H](NC(=O)CNC(=O)c2cccc(C(F)(F)F)c2)C[C@@H]1CS(=O)(=O)c1ccccc1 (racemic) .
OUT: true

IN: Is it true that remaining at 10 min, 0.5 µM reported for CCCN[C@@H]1CC[C@H](NC(=O)CNC(=O)c2cccc(C(F)(F)F)c2)C[C@@H]1CS(=O)(=O)c1ccccc1 (racemic) is less than 20%?
OUT: true

IN: Does this compound meet the criterion remaining at 10 min, 0.5 µM < 20%? CCN[C@@H]1CC[C@H](NC(=O)CNC(=O)c2cccc(C(F)(F)F)c2)C[C@@H]1CS(=O)(=O)c1ccccc1 (racemic)
OUT: false

----------
measured.on: C-C chemokine receptor type 2 (Homo sapiens, UniProt P41597)
Sequence (P41597 whole entry): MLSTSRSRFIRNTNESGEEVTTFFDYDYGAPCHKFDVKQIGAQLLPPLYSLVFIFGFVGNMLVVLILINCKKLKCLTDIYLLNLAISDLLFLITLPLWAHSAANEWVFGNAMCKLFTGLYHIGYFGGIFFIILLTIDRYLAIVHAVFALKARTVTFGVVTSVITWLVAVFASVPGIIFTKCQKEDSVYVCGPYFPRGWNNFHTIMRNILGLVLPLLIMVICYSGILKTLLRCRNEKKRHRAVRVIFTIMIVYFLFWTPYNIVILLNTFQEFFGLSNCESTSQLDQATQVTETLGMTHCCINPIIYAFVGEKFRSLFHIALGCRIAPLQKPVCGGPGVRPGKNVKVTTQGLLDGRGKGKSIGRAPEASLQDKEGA
test: Displacement of [125I]MCP-1 from CCR2 in human PMBC
pIC50: −log10 of the molar value.
Outcome: Condition met for pIC50 of at least 7; Condition not met for anything lower.

IN: Determine whether this molecule has pIC50 no lower than 7: `N[C@@H]1CC[C@H](NC(=O)CNC(=O)c2cccc(C(F)(F)F)c2)C[C@H]1CS(=O)(=O)c1ccccc1`
OUT: Condition not met

IN: hey, is pIC50 for this one >= 7? CCCN(C)[C@@H]1CC[C@H](NC(=O)CNC(=O)c2cccc(C(F)(F)F)c2)C[C@@H]1CS(=O)(=O)c1ccccc1 (racemic)
OUT: Condition not met

IN: Quick check, pIC50 >= 7? CC(C)N[C@@H]1CC[C@H](NC(=O)CNC(=O)c2cccc(C(F)(F)F)c2)C[C@@H]1CS(=O)(=O)c1ccccc1 (racemic)
OUT: Condition met

IN: Textbook exercise: given the entry `CC(C)N(C)[C@@H]1CC[C@H](NC(=O)CNC(=O)c2cccc(C(F)(F)F)c2)C[C@H]1CS(=O)(=O)c1ccccc1` , state whether its pIC50 is greater than or equal to 7.
OUT: Condition not met

IN: Does pIC50 meet or surpass 7 for CCCN[C@@H]1CC[C@H](NC(=O)CNC(=O)c2cccc(C(F)(F)F)c2)C[C@@H]1CS(=O)(=O)c1ccccc1 (racemic) ?
OUT: Condition met

IN: Given the entry CN[C@@H]1CC[C@H](NC(=O)CNC(=O)c2cccc(C(F)(F)F)c2)C[C@@H]1CS(=O)(=O)c1ccccc1 (racemic) , answer whether its pIC50 meets or surpasses 7.
OUT: Condition not met

IN: Form field: pIC50 at least 7? Entry: `N[C@H]1CC[C@@H](NC(=O)CNC(=O)c2cccc(C(F)(F)F)c2)CC1`
OUT: Condition not met

IN: Does the molecule N[C@@H]1CC[C@H](NC(=O)CNC(=O)c2cccc(C(F)(F)F)c2)C[C@@H]1CS(=O)(=O)c1ccccc1 (racemic) have recorded pIC50 that is 7 or more?
OUT: Condition met

IN: pIC50 >= 7 for O=C(CNC(=O)c1cccc(C(F)(F)F)c1)N[C@H]1CC[C@@H](N2CCCCC2)[C@@H](CS(=O)(=O)c2ccccc2)C1 (racemic) ?
OUT: Condition not met

IN: Check if pIC50 >= 7 (inclusive). Item: CCN[C@@H]1CC[C@H](NC(=O)CNC(=O)c2cccc(C(F)(F)F)c2)C[C@@H]1CS(=O)(=O)c1ccccc1 (racemic)
OUT: Condition met

IN: Given the entry `CC(C)N[C@@H]1CC[C@H](NC(=O)CNC(=O)c2cccc(C(F)(F)F)c2)[C@H](CS(=O)(=O)c2ccccc2)C1` , answer whether its pIC50 meets or surpasses 7.
OUT: Condition met

IN: State whether the measured pIC50 reaches 7, counting equality as reaching it, for `CC(C)N[C@@H]1CC[C@H](NC(=O)CNC(=O)c2cccc(C(F)(F)F)c2)C[C@H]1CS(=O)(=O)c1ccccc1`
OUT: Condition not met

IN: Does pIC50 meet or surpass 7 for O=C(CNC(=O)c1cccc(C(F)(F)F)c1)N[C@H]1CC[C@@H](NC2CCC2)[C@@H](CS(=O)(=O)c2ccccc2)C1 (racemic) ?
OUT: Condition met

IN: Check if pIC50 >= 7 (inclusive). Item: N[C@@H]1CC[C@H](NC(=O)CNC(=O)c2cccc(C(F)(F)F)c2)[C@H](CS(=O)(=O)c2ccccc2)C1 (racemic)
OUT: Condition met

IN: API: above_or_equal(metric=pIC50, cutoff=7) for item `CC(C)N[C@H]1CC[C@@H](NC(=O)CNC(=O)c2cccc(C(F)(F)F)c2)CC1`
OUT: Condition not met
